- Tested Target: human CXCR3 (N-delta 4) (Homo sapiens, UniProt P49682)
- Construct: CD8 leader (N); Flag; expressed in transfected cells; membranes prepared
- Assay Name: Human CXCR3 (N-delta 4) Scintillation Proximity Assay (SPA), [125I] IP-10 binding to Ba/F3-hCXCR3 membranes
- Test Context: IC50 rating, Table 1; read-out: IC50
Measured Quantity: IC50

Reference set (3 entries):
- Compound: "CC[C@H]1CN(c2nc(N)c(C(=O)NCCNS(N)(=O)=O)nc2Cl)CCN1C1CCN(Cc2ccc(C#N)cc2)CC1 [compound 266]"
  IC50: "< 25 nM"
- Compound: "CC[C@H]1CN(c2ncc(C(=O)NCCO)nc2C)[C@H](C)CN1C1CCN(Cc2ccc(OC(F)(F)F)cc2)CC1 [compound 488]"
  IC50: "< 25 nM"
- Compound: "CC[C@H]1CN(c2nc(N)c(C(=O)NCCO)nc2Cl)CCN1C1CCN(Cc2ccc(F)c(F)c2)CC1 [compound 123]"
  IC50: "< 25 nM"

# IC50 lookup, item C[C@@H]1CN(C2CCN(Cc3ccc(Cl)cc3F)CC2)[C@@H](C)CN1c1cnc(C(=O)NC2CC2)cn1 [compound 94] 25 to 100 nM

---

- Tested Target: human CXCR3 (N-delta 4) (Homo sapiens, UniProt P49682)
- Construct: CD8 leader (N); Flag; expressed in transfected cells; membranes prepared
- Assay Name: Human CXCR3 (N-delta 4) Scintillation Proximity Assay (SPA), [125I] IP-10 binding to Ba/F3-hCXCR3 membranes
- Test Context: IC50 rating, Table 1; read-out: IC50
pIC50: −log10 of the molar value.
Measured Quantity: pIC50

Example cases with answers are listed next.
- Molecule: "CC[C@H]1CN(c2nc(N)c(C(=O)OC)nc2Cl)CCN1C1CCN(C2c3ccc(C#N)cc3CCC2O)CC1 (stereo partly shown) [compound 305]"
  Tested Target: "human CXCR3 (N-delta 4) (Homo sapiens, UniProt P49682)"
  Measured: "< 7.00"
- Molecule: "CC[C@H]1CN(c2nc(N)c(C(=O)NC)nc2Cl)CCN1C1CCN(C(=O)c2ccc(Cl)cc2NC)CC1 [compound 366]"
  Tested Target: "human CXCR3 (N-delta 4) (Homo sapiens, UniProt P49682)"
  Measured: "< 7.00"
- Molecule: "CC[C@H]1CN(c2ncc(C(=O)NC3CC3)nc2C)CCN1C1CCN([C@@H](C(=O)OC)c2ccc(Cl)cc2)CC1 [compound 485]"
  Tested Target: "human CXCR3 (N-delta 4) (Homo sapiens, UniProt P49682)"
  Measured: "> 7.60"
- Molecule: "CC[C@H]1CN(c2nc(N)c(C(=O)NCCO)nc2Cl)CCN1C1CCN(C(=O)c2ccc(C)cc2O)CC1 [compound 321]"
  Tested Target: "human CXCR3 (N-delta 4) (Homo sapiens, UniProt P49682)"
  Measured: "7.00 to 7.60"
- Molecule: "CC[C@H]1CN(c2nc(N)c(C(N)=O)nc2Cl)CCN1C1CCN(Cc2ccc(Cl)cc2CC(=O)OC)CC1 [compound 38]"
  Tested Target: "human CXCR3 (N-delta 4) (Homo sapiens, UniProt P49682)"
  Measured: "7.00 to 7.60"

Fill blank: measured pIC50 of the molecule CCNC(=O)c1nc(Cl)c(N2CCN(C3CCN(C(C)(C)c4ccc(Cl)cc4)CC3)[C@@H](C)C2)nc1N [compound 106] is ____. < 7.00

Entry CC[C@H]1CN(c2nc(N)c(C(=O)NC3CC3)nc2Cl)CCN1C1CCN(Cc2ccc(OCC(N)=O)cc2)CC1 [compound 97] please < 7.00

---

- Tested Target: human CXCR3 (N-delta 4) (Homo sapiens)
- Construct: CD8 leader (N); Flag; expressed in transfected cells; membranes prepared
- Sequence (P49682 5-368 limits assumed): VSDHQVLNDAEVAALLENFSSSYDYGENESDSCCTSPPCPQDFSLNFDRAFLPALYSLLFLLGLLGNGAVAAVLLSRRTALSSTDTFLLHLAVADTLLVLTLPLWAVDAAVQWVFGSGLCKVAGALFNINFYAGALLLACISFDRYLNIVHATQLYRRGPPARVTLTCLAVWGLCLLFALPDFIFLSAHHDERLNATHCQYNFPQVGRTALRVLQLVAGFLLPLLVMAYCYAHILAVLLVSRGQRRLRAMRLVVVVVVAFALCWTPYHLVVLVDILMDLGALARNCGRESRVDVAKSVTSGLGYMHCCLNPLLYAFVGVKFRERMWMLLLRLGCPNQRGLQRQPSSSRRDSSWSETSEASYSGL
- Assay Name: Human CXCR3 (N-delta 4) Scintillation Proximity Assay (SPA), [125I] IP-10 binding to Ba/F3-hCXCR3 membranes
- Test Context: IC50 rating, Table 1; read-out: IC50
pIC50: −log10 of the molar value.
Measured Quantity: pIC50

- Compound: "CC[C@H]1CN(c2nc(N)c(C(=O)NCC(C)O)nc2Cl)CCN1C1CCN(Cc2ccc(Cl)cc2)CC1 (stereo partly shown)"
  pIC50: "> 7.60"
- Compound: "CC[C@H]1CN(c2nc(N)c(C(=O)NC)nc2Cl)CCN1C1CCN(C(=O)c2ccc(C#N)cc2)CC1"
  pIC50: "> 7.60"
- Compound: "CC[C@H]1CN(c2ncc(C(=O)OC)nc2C)[C@H](C)CN1C1CCN([C@@H](CO)c2ccc(Cl)cc2)CC1"
  pIC50: "> 7.60"
- Compound: "CC[C@H]1CN(c2nc(N)c(C(=O)NC)nc2Cl)CCN1C1CCN(C(=O)c2ccc(Cl)c(NS(C)(=O)=O)c2)CC1"
  pIC50: "< 7.00"
- Compound: "CC[C@H]1CN(c2nc(N)c(C(=O)NCCO)nc2Cl)CCN1C1CCN(Cc2ccc(Cl)cc2C(C)C(=O)OC)CC1 (stereo partly shown)"
  pIC50: "< 7.00"
- Compound: "CC[C@H]1CN(c2nc(N)c(C(=O)N[C@H](CO)C(C)C)nc2Cl)CCN1C1CCN(C(=O)c2ccc(Cl)cc2)CC1"
  pIC50: "< 7.00"

Which pIC50 reading was recorded for the compound CC[C@H]1CN(c2nc(N)c(C(=O)NCCCNS(=O)(=O)C(F)(F)F)nc2Cl)CCN1C1CCN(Cc2ccc(C#N)cc2)CC1 ? < 7.00

---

- Tested Target: human CXCR3 (N-delta 4) (Homo sapiens, UniProt P49682)
- Construct: CD8 leader (N); Flag; expressed in transfected cells; membranes prepared
- Assay Name: Human CXCR3 (N-delta 4) Scintillation Proximity Assay (SPA), [125I] IP-10 binding to Ba/F3-hCXCR3 membranes
- Test Context: IC50 rating, Table 1; read-out: IC50
Measured Quantity: IC50

Worked cases, answers included:
- Molecule: "CC[C@H]1CN(c2ncc(C(=O)NC3(C)CC3)nc2C)[C@H](C)CN1C1CCN(C(=O)c2ccc(Cl)cc2)CC1 [compound 479]"
  Tested Target: "human CXCR3 (N-delta 4) (Homo sapiens, UniProt P49682)"
  Measured: "< 25 nM"
- Molecule: "CC[C@H]1CN(c2nc(N)c(C(=O)NCCO)nc2Cl)CCN1C1CCN(Cc2ccc(F)c(F)c2N2CCOCC2)CC1 [compound 183]"
  Tested Target: "human CXCR3 (N-delta 4) (Homo sapiens, UniProt P49682)"
  Measured: "25 to 100 nM"
- Molecule: "CC[C@H]1CN(c2nc(N)c(C(=O)NCCO)nc2Cl)CCN1C1CCN(Cc2ccc(Cl)cc2C#N)CC1 [compound 136]"
  Tested Target: "human CXCR3 (N-delta 4) (Homo sapiens, UniProt P49682)"
  Measured: "< 25 nM"
- Molecule: "CC[C@H]1CN(c2nc(N)c(C(=O)NC[C@@H](C)O)nc2Cl)CCN1C1CCN(Cc2ccc(Cl)cc2C(O)C(=O)OC)CC1 (stereo partly shown) [compound 219]"
  Tested Target: "human CXCR3 (N-delta 4) (Homo sapiens, UniProt P49682)"
  Measured: "< 25 nM"
- Molecule: "CC[C@H]1CN(c2nc(N)c(C(N)=O)nc2Cl)CCN1C1CCN(Cc2ccc(Cl)cc2CCNC(=O)OC)CC1 [compound 39]"
  Tested Target: "human CXCR3 (N-delta 4) (Homo sapiens, UniProt P49682)"
  Measured: "25 to 100 nM"

Tell me reported IC50 for CC[C@H]1CN(c2nc(N)c(C(=O)NCCCN3CCCS3(=O)=O)nc2Cl)CCN1C1CCN(Cc2ccc(C#N)cc2)CC1 [compound 275] , tested with human CXCR3 (N-delta 4) (Homo sapiens, UniProt P49682). > 100 nM

Also CC[C@H]1CN(c2nc(N)c(C(=O)NC)nc2Cl)CCN1C1CCN(C(=O)c2ccc(-c3cnco3)cc2)CC1 [compound 354] , if possible. > 100 nM

---

- Tested Target: human CXCR3 (N-delta 4) (Homo sapiens)
- Construct: CD8 leader (N); Flag; expressed in transfected cells; membranes prepared
- Assay Name: Human CXCR3 (N-delta 4) Scintillation Proximity Assay (SPA), [125I] IP-10 binding to Ba/F3-hCXCR3 membranes
- Test Context: IC50 rating, Table 1; read-out: IC50
Entries and their IC50 values follow.

- Smiles Code: "CC[C@H]1CN(c2nc(N)c(C(=O)NC)nc2Cl)CCN1C1CCN(C(=O)c2ccc(Cl)cc2O)CC1"
  IC50: "25 to 100 nM"
- Smiles Code: "CC[C@H]1CN(c2nc(N)c(C(=O)OC)nc2Cl)CCN1C1CCN(Cc2ccc(Cl)cc2CCNC(C)=O)CC1"
  IC50: "> 100 nM"
- Smiles Code: "CC[C@H]1CN(c2nc(N)c(C(N)=O)nc2Cl)CCN1C1CCN(Cc2ccc(O)c(F)c2)CC1"
  IC50: "> 100 nM"
- Smiles Code: "CC[C@H]1CN(c2nc(N)c(C(=O)NC(CO)CO)nc2Cl)CCN1C1CCN(C(=O)c2ccc(Cl)cc2)CC1"
  IC50: "25 to 100 nM"
- Smiles Code: "CC[C@H]1CN(c2nc(N)c(C(=O)NCCO)nc2Cl)CCN1C1CCN(Cc2ccc(F)cc2F)CC1"
  IC50: "< 25 nM"

Need IC50, item CC[C@H]1CN(c2nc(N)c(C(=O)NCCO)nc2Cl)CCN1C1CCN(Cc2c(O)cc(Cl)cc2Cl)CC1 25 to 100 nM

Now consider CC[C@H]1CN(c2nc(N)c(C(=O)NCCNS(C)(=O)=O)nc2Cl)CCN1C1CCN([C@H](C(=O)OC)c2ccc(Cl)cc2)CC1 and answer again. > 100 nM
